subject_of_test: CDK12/CycK (Homo sapiens)
Sequence (Q9NYV4 whole entry): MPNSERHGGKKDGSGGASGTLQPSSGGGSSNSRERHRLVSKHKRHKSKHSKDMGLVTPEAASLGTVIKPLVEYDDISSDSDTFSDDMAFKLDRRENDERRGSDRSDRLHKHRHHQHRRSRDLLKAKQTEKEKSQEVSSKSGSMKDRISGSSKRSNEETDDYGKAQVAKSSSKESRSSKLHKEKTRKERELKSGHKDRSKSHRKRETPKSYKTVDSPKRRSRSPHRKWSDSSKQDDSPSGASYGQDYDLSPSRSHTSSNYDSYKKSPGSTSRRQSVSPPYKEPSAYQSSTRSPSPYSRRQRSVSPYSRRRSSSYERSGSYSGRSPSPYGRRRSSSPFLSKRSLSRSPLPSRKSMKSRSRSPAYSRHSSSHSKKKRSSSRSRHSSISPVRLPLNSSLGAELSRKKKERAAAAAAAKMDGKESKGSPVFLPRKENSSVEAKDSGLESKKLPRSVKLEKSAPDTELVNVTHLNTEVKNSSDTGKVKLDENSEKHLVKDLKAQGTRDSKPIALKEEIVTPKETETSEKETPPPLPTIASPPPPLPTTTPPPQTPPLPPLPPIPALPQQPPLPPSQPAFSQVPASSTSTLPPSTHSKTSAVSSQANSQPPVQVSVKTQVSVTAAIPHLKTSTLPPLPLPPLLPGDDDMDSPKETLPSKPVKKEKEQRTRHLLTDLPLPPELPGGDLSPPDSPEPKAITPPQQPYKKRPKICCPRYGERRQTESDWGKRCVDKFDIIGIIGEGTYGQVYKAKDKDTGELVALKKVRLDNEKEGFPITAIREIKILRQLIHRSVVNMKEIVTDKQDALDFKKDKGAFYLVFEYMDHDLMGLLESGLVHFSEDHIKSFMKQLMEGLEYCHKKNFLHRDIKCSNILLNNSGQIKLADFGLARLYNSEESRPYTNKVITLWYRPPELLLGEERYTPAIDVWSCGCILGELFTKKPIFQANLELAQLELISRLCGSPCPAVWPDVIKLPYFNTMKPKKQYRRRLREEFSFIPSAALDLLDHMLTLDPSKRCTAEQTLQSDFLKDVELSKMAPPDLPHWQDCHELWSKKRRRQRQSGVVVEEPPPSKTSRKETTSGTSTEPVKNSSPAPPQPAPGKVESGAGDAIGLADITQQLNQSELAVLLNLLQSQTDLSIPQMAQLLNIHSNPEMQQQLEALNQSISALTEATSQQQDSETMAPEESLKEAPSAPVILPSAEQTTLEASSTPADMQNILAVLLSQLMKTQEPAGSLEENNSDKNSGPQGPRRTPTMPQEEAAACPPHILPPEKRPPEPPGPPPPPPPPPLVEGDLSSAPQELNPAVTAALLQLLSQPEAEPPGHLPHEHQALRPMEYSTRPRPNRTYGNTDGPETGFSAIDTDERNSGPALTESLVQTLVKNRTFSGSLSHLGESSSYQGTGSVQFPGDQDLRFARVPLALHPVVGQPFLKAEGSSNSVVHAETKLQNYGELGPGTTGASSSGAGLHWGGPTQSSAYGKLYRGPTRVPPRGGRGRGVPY
Sequence (O75909 whole entry partner): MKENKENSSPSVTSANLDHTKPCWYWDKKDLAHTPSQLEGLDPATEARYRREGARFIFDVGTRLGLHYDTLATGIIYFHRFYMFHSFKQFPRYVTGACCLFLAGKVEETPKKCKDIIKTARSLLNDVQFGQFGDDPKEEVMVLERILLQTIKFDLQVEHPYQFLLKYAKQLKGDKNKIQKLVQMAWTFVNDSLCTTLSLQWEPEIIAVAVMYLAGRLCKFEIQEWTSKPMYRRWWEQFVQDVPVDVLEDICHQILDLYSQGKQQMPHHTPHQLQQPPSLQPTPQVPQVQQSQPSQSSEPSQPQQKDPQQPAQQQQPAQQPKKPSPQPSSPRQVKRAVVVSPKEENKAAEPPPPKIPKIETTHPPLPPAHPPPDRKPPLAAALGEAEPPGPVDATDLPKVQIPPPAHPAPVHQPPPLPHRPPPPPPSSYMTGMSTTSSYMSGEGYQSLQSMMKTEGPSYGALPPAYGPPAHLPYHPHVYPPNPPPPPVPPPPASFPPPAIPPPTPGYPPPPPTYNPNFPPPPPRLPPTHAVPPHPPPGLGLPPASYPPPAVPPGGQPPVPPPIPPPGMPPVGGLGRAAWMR
assay_method_text: Inhibition of CDK12 (ADP-Glo kinase assay)
condition_label: 60 nM CDK12/CycK, 30 minutes pre-incubation, 1 μM ATP, 0.5 μM RBER-IRStide substrate, 1 h at 25° C., read-out: CDK12/cyclin K IC50
pIC50: −log10 of the molar value.
measurement_type: pIC50

compound | result
C=CC(=O)Nc1cccc(C(=O)N2CCC(c3cc4c(-c5cnn6ncccc56)ccnc4[nH]3)C2)c1 (stereo not shown) | > 7.00
OCc1cc2c(-c3cnn4ncccc34)ccnc2[nH]1 | 6.00 to 7.00
CN(C)C/C=C/C(=O)N1CCC[C@H]1C(=O)NCCc1cc2c(-c3cnn4ncccc34)ccnc2[nH]1 | 4.52 to 6.00
c1cc(-c2ccc3cn[nH]c3c2)c2cc[nH]c2n1 | 6.00 to 7.00

* * *

subject_of_test: CDK12/CycK (Homo sapiens)
assay_method_text: Inhibition of CDK12 (ADP-Glo kinase assay)
condition_label: 60 nM CDK12/CycK, 30 minutes pre-incubation, 1 μM ATP, 0.5 μM RBER-IRStide substrate, 1 h at 25° C., read-out: CDK12/cyclin K IC50

molecule | subject_of_test | IC50
C=CC(=O)N1CCC[C@H]1C(=O)NCCc1cc2c(-c3cnn4ncccc34)ccnc2[nH]1 | CDK12/CycK (Homo sapiens) | < 100 nM
C=CC(=O)N1CC2(CC2)C[C@H]1C(=O)NCCc1cc2c(-c3cnn4ncccc34)ccnc2[nH]1 | CDK12/CycK (Homo sapiens) | < 100 nM
O=C(CCl)NCC(=O)N1CCC(c2cc3c(-c4cnn5ncccc45)ccnc3[nH]2)C1 (stereo not shown) | CDK12/CycK (Homo sapiens) | < 100 nM
CC(C)(C)OC(=O)N1CCC(c2cc3c(-c4cnn5ncccc45)ccnc3[nH]2)C1 (stereo not shown) | CDK12/CycK (Homo sapiens) | 100 to 1000 nM

* * *

Listed here are molecules together with their documented IC50.
subject_of_test: CDK12/CycK (Homo sapiens)
assay_method_text: Inhibition of CDK12 (ADP-Glo kinase assay)
condition_label: 60 nM CDK12/CycK, 30 minutes pre-incubation, 1 μM ATP, 0.5 μM RBER-IRStide substrate, 1 h at 25° C., read-out: CDK12/cyclin K IC50
measurement_type: IC50

molecule | result
C=CC(=O)Nc1cc(C(=O)N2CCC(c3cc4c(-c5cnn6ncccc56)ccnc4[nH]3)C2)ccc1OC (centres unmarked) [Example 204] | < 100 nM
C=CC(=O)NC(Cc1ccccc1)C(=O)NCCc1cc2c(-c3cnn4ncccc34)ccnc2[nH]1 (centres unmarked) [Example 211] | 100 to 1000 nM
Cc1ccc2c(-c3ccnc4[nH]ccc34)cnn2n1 [Example 26] | 1000 to 30000 nM
C=CC(=O)N[C@@H]1CC[C@@H](C(=O)NCCc2cc3c(-c4cnn5ncccc45)ccnc3[nH]2)C1 [Example 64] | 100 to 1000 nM
CCC(=O)Nc1cccc(C(=O)N2CCC(c3cc4c(-c5cnn6ncccc56)ccnc4[nH]3)C2)c1 (centres unmarked) [Example 173] | < 100 nM
c1ccn2ncc(-c3ccnc4[nH]ccc34)c2c1 [Example 18] | 1000 to 30000 nM
O=C(CCl)Nc1cccc(C(=O)N2CC[C@H](c3cc4c(-c5cnn6ncccc56)ccnc4[nH]3)C2)c1 [Example 160] | < 100 nM
C=CC(=O)N1C[C@H](F)C[C@H]1C(=O)NCCc1cc2c(-c3cnn4ncccc34)ccnc2[nH]1 [Example 207] | < 100 nM
